This collection of values is drawn from ChEMBL document CHEMBL1201861.

- Test system: RT-112
- ASSAY COMMENT: cells
- Type: functional, cell-based, Homo sapiens
- CONDITIONS USED: Homo sapiens, RT-112
- Description: SANGER: Inhibition of human RT-112 cell growth in a cell viability assay.
MEASURE NAME: IC50

STRUCTURE AS SMILES | IC50
CN(C)C(=N)NC(=N)N | > 20000 µM
Cc1cn(-c2cc(NC(=O)c3ccc(C)c(Nc4nccc(-c5cccnc5)n4)c3)cc(C(F)(F)F)c2)cn1 | > 2 µM

Okay, now this molecule:
## Input Tell me the measured IC50 of CCN(CC)CCCCNc1ncc2cc(-c3cc(OC)cc(OC)c3)c(NC(=O)NC(C)(C)C)nc2n1 , please.
## Output 0.547 µM
